Experiment: NCI Yeast Anticancer Drug Screen. Data for the cln2 rad14 strain (AID 165);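 also: 0% = growth equal to vehicle treated cultures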
Conditions: S. cerevisiae cln2 rad14 strain, at 50.0 µM, active compounds read high
Description: Growth inhibition of yeast strains with defined genetic alterations is measured as a screen for potential anti-cancer activity. Selected strains with alterations in DNA damage repair or cell cycle control were exposed to compounds and growth inhibition was measured relative to vehicle treated controls. The strain used in this assay is cln2 rad14
The panel holds about 79,000 compounds, 15% with a hit somewhere; the sample as a whole holds those more often. Where a SMILES comes first, the peptide text is derived from it.
measure name: growth inhibition (%)
Numbers only, in %.

Can you give me growth inhibition for all of these, one by one?
1. COC(=O)C(Cc1nc2ccc(Cl)cc2[nH]c1=O)C(=O)C(=O)Nc1cc(C)ccc1C (stereo not given)
2. C=C(C)[C@@H]1CC=C(CO)CC1

-35.6
22.1

Can you give me growth inhibition for all of these, one by one?
1. CSC(c1ccc(Oc2ccccc2)cc1)=[N+]1CCCCC1
2. CC(=O)NC(CO)C(=O)NC(Cc1ccc(O)cc1)C(=O)NCC(N)=O (stereo not drawn) (Ac-Ser-Tyr-Gly-NH2; configuration not given here)
3. Cc1cc(Br)cc(Cl)c1O
4. O=C(Cl)C(Cl)(c1ccccc1)c1ccccc1
5. COc1cc(C2SCC(=O)N2NC(=O)c2ccc(NC(C)=O)cc2)cc(OC)c1OC (stereo not given)
6. CC(=O)n1[nH]c(=O)n(-c2ccccc2)c1=O

[23.2, 18.8, -11.2, -6.9, 6.15, 10.1]

Can you give me growth inhibition for all of these, one by one?
1. CC(=O)OC/C=C1/CC[C@H]2[C@@H]3CCC4=CC(=O)CC[C@]4(C)[C@H]3[C@@H](O)C[C@]12C
2. O=C(CC(C(=O)O)S(=O)(=O)O)Nc1ccc(S(=O)(=O)c2ccc(NC(=O)CC(C(=O)O)S(=O)(=O)O)cc2)cc1 (stereo not given)
3. C=CC(CO)N(CC)CC (stereo not given)

1. -31.4
2. -5.55
3. 13.3

Can you give me growth inhibition for all of these, one by one?
1. FC(F)(F)c1cc(Br)c2ccc3ncccc3c2n1
2. O=C1c2ccccc2C(=O)c2c(NCCNC(=O)C3CCCN3)ccc(NCCNC(=O)C3CCCN3)c21 (stereo not given)

-5.2
3.4

Can you give me growth inhibition for all of these, one by one?
1. O=C(CC(C(=O)c1cccs1)c1ccsc1)c1cccs1 (stereo not given)
2. CCCCCCCCCCCCCCCC[N+]1(C)CCC[N+](C)(CCCCCCCCCCCCCCCC)CC1 (stereo not given)
3. O=C1CC(c2ccccc2)C(c2ccccc2)C1C(=O)OC1CCCCC1 (stereo not given)
4. COc1cc(OC)c(NC(=O)Nc2ccc([N+](=O)[O-])cc2OC)cc1Cl

1: 21; 2: -22.6; 3: -62.5; 4: -49.1

Can you give me growth inhibition for all of these, one by one?
1. Cc1ccc(S(=O)(=O)N/N=C(\C(=O)c2ccccc2)c2ccccc2)cc1
2. CCN(CC)c1ccc(-c2ccccc2)cc1
3. O=C(Nc1cccc(C(=O)Nc2ccc(S(=O)(=O)O)c3cc(S(=O)(=O)O)cc(S(=O)(=O)O)c23)c1)Nc1cccc(C(=O)Nc2cccc3c(S(=O)(=O)O)c(S(=O)(=O)O)cc(S(=O)(=O)O)c23)c1

1: 28.1; 2: -69.4; 3: 47.9
